EXPERIMENTAL TARGET: Sialic acid-binding Ig-like lectin 9 (Homo sapiens)
PROCEDURE DETAILS: Hs-Siglec9 ALPHAscreen SOP 20170721
Parameters: scale not given: direction of the effect not stated beside the values
CONDITION PARAMETERS: 10 µM
Below: a set of entries, each annotated with reported Percent Effect.
All answers are understood in %, so give the number only.

Here is how some molecules turned out for Percent Effect.
MOLECULE	Percent Effect / %
Cc1nc(N2CCCC2)nc2c1CCN(C(=O)C1CCCC1)CC2	2.33
CCNC(c1cccnc1)c1cc(C)cc(C)c1 (stereo not drawn)	-1.27

Let's switch to this molecule now.
Request: Would you kindly share the measured Percent Effect for COCCNc1nc2c(c(NCc3ccncc3)n1)CCNCC2 ?
Result: 0.0545

----------
EXPERIMENTAL TARGET: AMP-activated protein kinase, AMPK (Homo sapiens) (UniProt P54646+O43741+P54619+Q9UGJ0+Q9Y478+Q13131+Q9UGI9)
PROCEDURE DETAILS: AMP-dependent Kinase enzyme assay. An in vitro enzyme assay that detects ADP turnover that is directly proportional to AMPK activity. This uses naive AMPK that is activated during the assay with MK-8722
Assay type: functional
Parameters: scale not given: direction of the effect not stated beside the values
CONDITION PARAMETERS: 30 µM
Percent Effect reference
Provide only the numeric value, understood in %.

Request: Look up Percent Effect for this molecule: CC(C)N1CCc2c(C#N)c(NCc3ccco3)n3cnnc3c2C1
Result: 6.37

Request: Item under review: CN(C)C(=O)CN1C[C@@H]2CC[C@H](C1)N(Cc1cccc(Cl)c1Cl)C2 . Reported Percent Effect?
Result: 1.3

Request: Please report the recorded Percent Effect for CNC(=O)[C@H]1C[C@@H]2CN(C(=O)c3ccco3)C[C@@H]2N1S(C)(=O)=O .
Result: -0.761

Request: Which Percent Effect is listed for CCOc1cc(C)nc(N2CCN(C(=O)CC)CC2)n1 ?
Result: 144

Request: Give the measured Percent Effect of Cc1csc(CNC(=O)N(C)Cc2cnn(C)c2)n1 .
Result: -6.61

Request: Consider the molecule COCCNC(=O)NCc1ccc(OC(C)C)c(F)c1 and give its measured Percent Effect.
Result: -1.85

----------
Organism: Homo sapiens
PROCEDURE DETAILS: To identify inhibition of the IFN signalling (Jak-Stat) pathway via expression of an eGFP reporter gene under the control of an IFN-stimulated response element (ISRE) containing MxA promoter.
Assay type: functional
Design: scale not given: direction of the effect not stated beside the values
CONDITION PARAMETERS: 30 µM
ENDPOINT: Percent Effect (%)
Number in %, nothing else.

COMPOUND	Percent Effect (%)
Clc1snnc1CN1CCCCC1Cn1cncn1 (stereo unspecified)	5.04

Request: What Percent Effect value was documented for this compound, N#Cc1cccc(S(=O)(=O)NC2CCN(Cc3ccccc3)C2=O)c1 (stereo unspecified) ?
Result: 1.05

Request: Data request, read-out Percent Effect, for CC(c1nc(C2CC2)no1)N1CCN(CCOCC(F)(F)F)CC1 (stereo unspecified)
Result: 21

Request: Endpoint output: Percent Effect of COCCNc1ccc(CNC(=O)Nc2cn[nH]c2)cc1 . Value?
Result: 20.9

Request: Entry Cc1cccc(CN(C)Cc2nc3c(cnn3C)c(=O)[nH]2)c1 has what Percent Effect?
Result: -2.73

Request: What measured Percent Effect goes with COc1ncccc1C(=O)NCC(C)Oc1cccnc1 (stereo unspecified) ?
Result: -3.73

Request: Item O=C(c1ccco1)N1CCCC(c2cc(C(F)F)n3ncnc3n2)C1 (stereo unspecified) has what recorded Percent Effect?
Result: 7.52

Request: Dear colleague, I am looking for the recorded Percent Effect of the following compound: COC(=O)C(NC(=O)c1ccco1)c1cc(F)ccc1F (stereo unspecified)
Result: -16.9

Request: Request the reported Percent Effect associated with CCN(CC)c1ccc(-c2nc(-c3cccc(OC)c3OC)no2)cn1
Result: 10.7

Request: What does the record list as Percent Effect for CS(=O)(=O)NCC1CCCN(Cc2ccc(F)c3cccnc23)C1 (stereo unspecified) ?
Result: 16.9

Request: What value of Percent Effect has been reported for the following compound? Fc1cccc(N2CCCC3(C2)CN(c2ncccn2)CCO3)c1 (stereo unspecified)
Result: 23.1

Request: I would be grateful if you could share the reported Percent Effect for O=C(NCCNc1cnccn1)C1CCN(C(=O)N2CCCC2)CC1 .
Result: 8.62

Request: Query: Percent Effect; subject: O=C(NCCCn1nc2ccccn2c1=O)NC1CCC(O)CC1 (stereo unspecified)
Result: 9.28

Request: Please give the measured Percent Effect for this compound: CC(=O)Nc1nc(C(=O)N2CCCC(n3ccnc3)C2)cs1 (stereo unspecified)
Result: -6.45

Request: Which measured Percent Effect value corresponds to CCc1nc(CCNC(=O)Nc2cc(C(N)=O)sc2C)cs1 ?
Result: 19.9

Request: For Cc1noc(C(C)C)c1C(=O)NCc1cc(F)cc(F)c1 , what is its reported Percent Effect?
Result: 17.8

Request: Look up Percent Effect for this compound: O=C1CCC(C(=O)NCc2nncn2-c2ccccc2)CN1 (stereo unspecified)
Result: 7.93
